Molecular target: mGluR1a (Rattus norvegicus)
Sequence (P23385 19-1199): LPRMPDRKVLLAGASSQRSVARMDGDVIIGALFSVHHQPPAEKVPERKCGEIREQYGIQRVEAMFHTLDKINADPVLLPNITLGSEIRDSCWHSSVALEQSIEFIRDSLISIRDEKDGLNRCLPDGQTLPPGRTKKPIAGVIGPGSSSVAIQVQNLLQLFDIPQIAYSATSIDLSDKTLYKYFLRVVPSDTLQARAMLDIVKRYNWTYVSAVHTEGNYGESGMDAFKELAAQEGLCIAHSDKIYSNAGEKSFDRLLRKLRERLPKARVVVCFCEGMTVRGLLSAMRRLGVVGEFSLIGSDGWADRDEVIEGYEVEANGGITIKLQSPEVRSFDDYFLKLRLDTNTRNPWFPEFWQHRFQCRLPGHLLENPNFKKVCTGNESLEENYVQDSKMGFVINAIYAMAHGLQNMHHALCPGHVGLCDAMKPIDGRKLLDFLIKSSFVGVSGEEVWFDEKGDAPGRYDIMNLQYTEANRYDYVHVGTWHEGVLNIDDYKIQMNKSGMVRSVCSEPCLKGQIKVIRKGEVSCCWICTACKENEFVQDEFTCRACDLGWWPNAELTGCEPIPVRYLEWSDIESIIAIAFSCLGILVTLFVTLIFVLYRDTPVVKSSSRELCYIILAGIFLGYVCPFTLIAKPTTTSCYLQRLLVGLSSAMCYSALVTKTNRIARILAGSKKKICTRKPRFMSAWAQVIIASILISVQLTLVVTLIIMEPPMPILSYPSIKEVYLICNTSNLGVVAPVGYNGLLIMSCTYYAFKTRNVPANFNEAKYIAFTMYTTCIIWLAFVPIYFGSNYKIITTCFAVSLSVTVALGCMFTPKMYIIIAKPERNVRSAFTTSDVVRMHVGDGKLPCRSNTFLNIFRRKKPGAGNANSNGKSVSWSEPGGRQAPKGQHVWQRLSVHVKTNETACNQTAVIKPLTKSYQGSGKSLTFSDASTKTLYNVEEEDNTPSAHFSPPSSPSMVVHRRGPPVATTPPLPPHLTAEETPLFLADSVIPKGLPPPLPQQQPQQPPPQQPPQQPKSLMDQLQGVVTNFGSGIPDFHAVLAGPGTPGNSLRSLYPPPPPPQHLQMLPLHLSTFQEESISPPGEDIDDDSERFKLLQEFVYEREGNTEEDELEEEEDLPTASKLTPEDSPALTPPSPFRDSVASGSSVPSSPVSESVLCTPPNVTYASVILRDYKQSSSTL
Experiment: accumulation of inositol phosphates (phospholipase C activation) in transfected HEK 293 cells expressing mGluR1a
Conditions: HEK 293 cells, IP accumulation; read-out: mGluR1a EC50 (agonist effect)
pEC50: −log10 of the molar value.
Measure Name: pEC50

*Q* State the measured pEC50 (mGluR1a (Rattus norvegicus)) of NC1(C(=O)O)CC(C(=O)O)C(C(=O)O)C1 (racemic)
*A* < 2.52

----------
Biological target: mGluR2 (Rattus norvegicus)
Sequence (P31421 19-872): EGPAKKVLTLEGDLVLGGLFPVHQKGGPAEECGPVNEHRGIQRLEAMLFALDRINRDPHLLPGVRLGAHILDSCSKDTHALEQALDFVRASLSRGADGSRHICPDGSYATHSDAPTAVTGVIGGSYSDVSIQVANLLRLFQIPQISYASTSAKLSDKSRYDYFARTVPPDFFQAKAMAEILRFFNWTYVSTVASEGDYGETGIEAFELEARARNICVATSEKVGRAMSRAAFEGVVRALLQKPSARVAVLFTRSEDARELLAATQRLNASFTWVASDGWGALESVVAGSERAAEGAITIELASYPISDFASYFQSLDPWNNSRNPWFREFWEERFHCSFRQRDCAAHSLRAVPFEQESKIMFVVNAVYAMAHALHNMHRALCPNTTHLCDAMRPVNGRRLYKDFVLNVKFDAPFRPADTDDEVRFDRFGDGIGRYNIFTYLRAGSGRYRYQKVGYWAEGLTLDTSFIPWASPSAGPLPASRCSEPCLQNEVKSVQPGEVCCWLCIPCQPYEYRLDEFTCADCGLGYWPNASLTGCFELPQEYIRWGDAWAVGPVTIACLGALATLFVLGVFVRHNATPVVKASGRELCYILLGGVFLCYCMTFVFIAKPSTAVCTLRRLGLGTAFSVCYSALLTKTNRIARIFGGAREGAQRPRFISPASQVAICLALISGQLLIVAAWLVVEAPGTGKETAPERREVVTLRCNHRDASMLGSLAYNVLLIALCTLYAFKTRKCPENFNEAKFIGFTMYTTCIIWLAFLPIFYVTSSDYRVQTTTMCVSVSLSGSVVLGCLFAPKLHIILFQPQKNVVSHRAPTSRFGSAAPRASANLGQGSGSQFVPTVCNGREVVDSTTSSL
Test: accumulation of inositol phosphates in transfected HEK 293 cells expressing mGluR2 co-expressed with chimeric G protein
Conditions: HEK 293 cells, IP accumulation; read-out: mGluR2 EC50 (agonist effect)
pEC50: −log10 of the molar value.
Measure Name: pEC50

*Q* State the measured pEC50 (mGluR2 (Rattus norvegicus)) of NC1(C(=O)O)CC(C(=O)O)C(C(=O)O)C1 (racemic)
*A* < 2.52

----------
Molecular target: mGluR4a (Rattus norvegicus)
Sequence (P31423 33-912): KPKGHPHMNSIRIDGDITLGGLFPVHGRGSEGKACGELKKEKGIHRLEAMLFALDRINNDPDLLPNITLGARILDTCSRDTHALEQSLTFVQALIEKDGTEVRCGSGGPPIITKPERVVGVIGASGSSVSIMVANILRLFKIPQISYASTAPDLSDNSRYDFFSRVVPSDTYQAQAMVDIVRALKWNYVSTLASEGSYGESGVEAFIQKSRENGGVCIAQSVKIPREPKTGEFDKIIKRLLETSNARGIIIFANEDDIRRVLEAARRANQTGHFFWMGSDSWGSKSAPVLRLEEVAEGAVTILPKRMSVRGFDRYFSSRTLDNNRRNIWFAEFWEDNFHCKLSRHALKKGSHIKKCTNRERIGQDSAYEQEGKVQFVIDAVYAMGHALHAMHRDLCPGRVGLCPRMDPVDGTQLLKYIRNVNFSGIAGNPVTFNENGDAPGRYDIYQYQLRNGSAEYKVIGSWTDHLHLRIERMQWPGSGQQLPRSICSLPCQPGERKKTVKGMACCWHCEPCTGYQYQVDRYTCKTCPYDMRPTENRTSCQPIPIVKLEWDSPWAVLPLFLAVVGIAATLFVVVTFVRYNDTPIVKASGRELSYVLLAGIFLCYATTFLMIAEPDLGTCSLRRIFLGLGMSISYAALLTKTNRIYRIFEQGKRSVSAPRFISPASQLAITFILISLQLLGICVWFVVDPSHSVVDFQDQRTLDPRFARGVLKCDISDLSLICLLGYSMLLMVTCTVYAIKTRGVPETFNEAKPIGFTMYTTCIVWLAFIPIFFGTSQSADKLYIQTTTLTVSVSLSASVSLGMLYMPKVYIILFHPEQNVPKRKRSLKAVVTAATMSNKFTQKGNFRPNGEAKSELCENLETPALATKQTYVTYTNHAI
Assay: accumulation of inositol phosphates in transfected HEK 293 cells expressing mGluR4a co-expressed with chimeric G protein
Conditions: IP accumulation, read-out: mGluR4a EC50 (agonist effect)
Measure Name: EC50 (µM)
Give bare numbers, in µM.

*Q* Complete the entry with EC50 for NC1(C(=O)O)CC(C(=O)O)C(C(=O)O)C1 (racemic)
*A* 40
